// provenance: ChEMBL document CHEMBL1141044

System: Enterovirus A71
Assay Method Text: Inhibitory activity against human Enterovirus 71 (4643) C using plaque reduction assay
Type: functional, organism-based
Measurement Setup: Enterovirus A
Recorded Metric: IC50

Record O=C1N(CCCCCOc2ccc(-c3ccc(Cl)cc3)cc2)CCN1c1ccncc1 . Reported IC50: 54 nM

---

System: Coxsackievirus
Assay Method Text: Inhibitory activity against Coxsackievirus B6 using plaque reduction assay
Type: functional, organism-based
pIC50: −log10 of the molar value.
Recorded Metric: pIC50

# annotated cases, reported pIC50 shown
C[C@@H](CCOc1ccc(-c2ccc(Cl)cc2)cc1)CCN1CCN(c2ccncc2)C1=O = < 4.60
C[C@H](CCOc1ccc(-c2ccc(Cl)cc2)cc1)CCN1CCN(c2ccncc2)C1=O = < 4.60

Next:
Record O=C1N(CCCCCOc2ccc(-c3ccc(Cl)cc3)cc2)CCN1c1ccncc1 . Reported pIC50: < 4.60
